molecules and their reported efficacy, PP entry assay
system: SARS-CoV-2 PP entry into HEK293-ACE2 cells; assay: microbe, parasite or virus in culture; assay type: cell-based
METRIC_NAME: efficacy, PP entry assay (%)

INSERT INTO assay_data (structure_string, metric_name, units_text, obs_value) VALUES
  ('Nc1nc(Nc2ccc3c(c2)CC[C@@H](N2CCCC2)CC3)nn1-c1cc2c(nn1)-c1ccccc1CCC2', 'efficacy, PP entry assay', '%', 112),
  ('O=C(NCc1ccccc1)[C@H](Cc1ccccc1)NC(=O)[C@H]1O[C@@H]1C(=O)NCCc1ccc(O)cc1', 'efficacy, PP entry assay', '%', 89),
  ('COc1ccc2cc1Oc1ccc(cc1)C[C@H]1c3c(cc4c(c3Oc3cc5c(cc3OC)CCN(C)[C@@H]5C2)OCO4)CCN1C', 'efficacy, PP entry assay', '%', 102),
  ('CCN(CC)Cc1cc(Nc2ccnc3cc(Cl)ccc23)ccc1O', 'efficacy, PP entry assay', '%', 103);

These entries and their values trace back to paper PMC8936051.
